Biological target: T1, human angiotensin 2 type 1 receptor (human, UniProt P30556 1-359)
T1 sequence (looked up): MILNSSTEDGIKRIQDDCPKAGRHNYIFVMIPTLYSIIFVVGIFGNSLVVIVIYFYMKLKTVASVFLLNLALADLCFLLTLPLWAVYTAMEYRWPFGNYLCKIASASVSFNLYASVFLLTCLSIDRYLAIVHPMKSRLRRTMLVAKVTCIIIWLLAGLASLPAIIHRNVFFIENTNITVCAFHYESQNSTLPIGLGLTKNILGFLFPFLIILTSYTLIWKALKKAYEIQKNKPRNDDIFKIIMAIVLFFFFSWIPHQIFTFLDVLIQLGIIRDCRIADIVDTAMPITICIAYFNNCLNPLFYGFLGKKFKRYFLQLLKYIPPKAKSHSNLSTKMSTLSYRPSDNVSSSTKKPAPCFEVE
Experiment: cell-based or functional assay
Non-standard residues stand in square brackets, D forms with d. No end group written: not given here. Sar = CNCC(=O)O
ENDPOINT NAME: b-arrestin2 EC50 (nM)
Just the number in nM, nothing appended.

DRVYYHP (D-Asp at 1; C-terminal amide (NH2)) [SEQ ID NO: 58] = 330
[Sar]RVYEHP-NH2 (N-terminus assumed; SMILES CNCC(=O)N[C@@H](CCCNC(=N)N)C(=O)N[C@H](C(=O)N[C@@H](Cc1ccc(O)cc1)C(=O)N[C@@H](CCC(=O)O)C(=O)N[C@@H](Cc1c[nH]cn1)C(=O)N1CCC[C@H]1C(N)=O)C(C)C) [SEQ ID NO: 40] = 95
GRVYVHPA (Me2G (N,N-dimethylglycine) at 1) [SEQ ID NO: 31] = 100

# context switch: different binder, same b-arrestin2 EC50
Short answer for ARVYIHPA (NMAla (N-methyl-L-alanine) at 1) [SEQ ID NO: 34] : b-arrestin2 EC50 was 25
